Test System: hTRPA1 (Homo sapiens)
Construct: gene TRPA1
Sequence (O75762 whole entry): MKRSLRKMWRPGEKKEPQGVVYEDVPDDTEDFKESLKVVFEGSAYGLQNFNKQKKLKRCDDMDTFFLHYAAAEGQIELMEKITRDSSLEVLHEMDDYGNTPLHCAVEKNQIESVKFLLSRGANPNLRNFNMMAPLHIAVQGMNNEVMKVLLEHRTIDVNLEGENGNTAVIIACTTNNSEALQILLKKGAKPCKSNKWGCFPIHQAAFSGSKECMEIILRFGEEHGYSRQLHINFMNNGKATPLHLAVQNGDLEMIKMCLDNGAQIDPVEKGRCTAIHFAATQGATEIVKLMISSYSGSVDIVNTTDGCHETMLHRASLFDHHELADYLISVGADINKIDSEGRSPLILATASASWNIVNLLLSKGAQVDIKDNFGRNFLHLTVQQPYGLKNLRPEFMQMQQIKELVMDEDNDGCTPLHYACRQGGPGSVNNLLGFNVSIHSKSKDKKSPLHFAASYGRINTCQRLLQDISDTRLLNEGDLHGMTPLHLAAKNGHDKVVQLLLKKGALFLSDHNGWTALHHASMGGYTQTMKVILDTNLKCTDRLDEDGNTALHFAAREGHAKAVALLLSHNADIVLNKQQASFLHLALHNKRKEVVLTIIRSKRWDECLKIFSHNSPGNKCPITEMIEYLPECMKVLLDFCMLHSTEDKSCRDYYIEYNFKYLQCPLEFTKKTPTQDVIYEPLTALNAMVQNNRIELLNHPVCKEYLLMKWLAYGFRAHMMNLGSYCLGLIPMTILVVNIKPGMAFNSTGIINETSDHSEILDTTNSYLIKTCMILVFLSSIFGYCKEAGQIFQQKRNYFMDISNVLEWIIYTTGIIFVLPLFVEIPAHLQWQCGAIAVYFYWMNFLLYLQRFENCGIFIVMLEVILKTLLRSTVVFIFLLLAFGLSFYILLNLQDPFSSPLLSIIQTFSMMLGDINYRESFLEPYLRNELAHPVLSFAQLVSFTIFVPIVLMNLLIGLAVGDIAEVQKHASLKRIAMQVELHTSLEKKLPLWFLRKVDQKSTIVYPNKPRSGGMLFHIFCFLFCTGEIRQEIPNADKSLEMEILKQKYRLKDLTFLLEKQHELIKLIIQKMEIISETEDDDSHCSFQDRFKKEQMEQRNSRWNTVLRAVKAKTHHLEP
Assay Comment: calcium fluorescence assay and whole-cell patch clamp in HEK […] cells expressing hTRPA1
Assay type: cell-based
Reported Property: pEC50
When answering, recall that pEC50 equals minus log10 of the concentration in mol/L, and write that number alone.

Tell me measured pEC50 for CCCCC/C=C\C/C=C\C/C=C\C/C=C\CCCC(=O)O [AA, arachidonic acid] please.
4.89
